These measurements were taken from patent US9204645B2.

Provide the recorded inhibition at 100 g/ha for the entries that follow.
System: green peach aphid (Myzus persicae)
Assay: Myzus spray test (MYZUPE)
Format: in vivo
Conditions: Myzus persicae, 144 h; MYZUPE, 100 g/ha, 6 dat; read-out: % Activity
Supply the numeric figure in %, leaving out any unit text.

Q: What inhibition at 100 g/ha value was documented for this compound, CC(=O)NCc1cc(NC(=O)c2c(Cl)c(C(F)(F)F)nn2C)ccc1F ?
A: 90

Q: Consider the compound Cn1nc(C(F)(F)F)c(Cl)c1C(=O)Nc1ccc(Cl)c(C(=O)NC2CC2)c1 [Example Ik-18, reference compound] and give its measured inhibition at 100 g/ha.
A: 0

Q: Query (compound): Cn1nc(C(F)(F)C(F)(F)F)c(C(F)(F)F)c1C(=O)Nc1ccc(F)c(C(=O)NC2CC2)c1 [Example Ik-155, reference compound] ; field requested: inhibition at 100 g/ha
A: 0

Q: Sample CC(C)NC(=O)c1cc(NC(=O)c2c(C(F)(F)F)c(C(F)(F)C(F)(F)F)nn2C)ccc1F [Example Ik-75, reference compound] — what was its inhibition at 100 g/ha?
A: 0

Q: Give the measured inhibition at 100 g/ha of CN(C(=O)c1c(C(F)(F)F)c(C(F)(F)C(F)(F)F)nn1C)c1cccc(CNC(=O)C2CC2)c1 .
A: 100

Q: Entry under review: CN(C(=O)c1c(C(F)(F)F)c(C(F)(F)C(F)(F)F)nn1C)c1ccc(Cl)c(C(=O)NC2CC2)c1 [Example Ik-132, reference compound] . Reported inhibition at 100 g/ha?
A: 0

---

Experiment: logP determination by HPLC on a reversed-phase column (C18), EEC Directive 79/831 Annex V.A8
Format: physicochemical
Settings: HPLC-MS, C18, acetonitrile (0.1% formic acid)/water (0.09% formic acid) gradient, read-out: log P
measured-metric: chromatographic logP
Hey, just send me the number, nothing else.

Q: Requested field: chromatographic logP. Item: CC(=O)NCc1c(F)ccc(N(C)C(=O)c2c(C(F)(F)F)c(C(F)(F)C(F)(F)F)nn2C)c1F
A: 2.85

Q: Tell me the measured chromatographic logP of CCCC(=O)NCc1cc(NC(=O)c2c(C(F)(F)F)c(C(F)(F)C(F)(F)F)nn2C)ccc1Cl , please.
A: 3.7

Q: Item CCC(=O)NC(C)c1cc(NC(=O)c2c(C(F)(F)F)c(C(F)(F)C(F)(F)F)nn2C)ccc1Cl (stereo not shown) has what recorded chromatographic logP?
A: 3.55

Q: Recorded chromatographic logP of Cn1nc(C(F)(F)C(F)(F)F)c([N+](=O)[O-])c1C(=O)O , please.
A: 1.41

---

Task for the reader: assign each of the following compounds its reported inhibition at 500 g/ha.
Test system: greenhouse red spider mite (Tetranychus urticae)
Test: Tetranychus urticae spray test, OP-resistant (TETRUR), bean leaf discs
Format: in vivo
Conditions: Tetranychus urticae, foliar, 144 h; TETRUR, 500 g/ha, 6 dat; read-out: % Activity

Q: GET /values?readout=inhibition at 500 g/ha&item= CN(C(=O)c1c(C(F)(F)F)c(C(F)(F)C(F)(F)F)nn1C)c1cccc(CNC(=O)C2CC2)c1
A: 100%

Q: Reported inhibition at 500 g/ha, compound CCC(=O)NCc1cc(NC(=O)c2c(C(F)(F)F)c(C(F)(F)C(F)(F)F)nn2C)ccc1F : ____
A: 100%

Q: // lookup inhibition at 500 g/ha for CC(=O)NCc1c(F)ccc(N(C)C(=O)c2c(C(F)(F)F)c(C(F)(F)C(F)(F)F)nn2C)c1F
A: 100%

Q: What measured inhibition at 500 g/ha goes with Cn1nc(C(F)(F)C(F)(F)F)c(C(F)(F)F)c1C(=O)Nc1cccc(C(=O)NC2CC2)c1 [Example Ik-13, reference compound] ?
A: 0%

Q: Which inhibition at 500 g/ha is listed for CC(C)NC(=O)c1cc(NC(=O)c2c(C(F)(F)F)c(C(F)(F)C(F)(F)F)nn2C)ccc1F [Example Ik-75, reference compound] ?
A: 0%

Q: Request the reported inhibition at 500 g/ha associated with CC(C)NC(=O)c1c(F)ccc(NC(=O)c2c(C(F)(F)F)c(C(F)(F)C(F)(F)F)nn2C)c1F [Example Ik-74, reference compound]
A: 0%

Q: Name the recorded inhibition at 500 g/ha for CCN(C(=O)c1c(C(F)(F)F)c(C(F)(F)C(F)(F)F)nn1C)c1ccc(F)c(CNC(C)=O)c1 .
A: 100%

Q: If you can, please state the reported inhibition at 500 g/ha value of CC(=O)NCc1cc(N(C)C(=O)c2c(C(F)(F)F)c(C(F)(F)C(F)(F)F)nn2C)ccc1F .
A: 100%

Q: Entry CCC(=O)NCc1cc(N(CC)C(=O)c2c(C(F)(F)F)c(C(F)(F)C(F)(F)F)nn2C)ccc1F : reported inhibition at 500 g/ha = ?
A: 100%

Q: What does the record list as inhibition at 500 g/ha for CC(=O)NCc1c(F)ccc(NC(=O)c2c(C(F)(F)F)c(C(F)(F)C(F)(F)F)nn2C)c1F ?
A: 90%
